Hey, just so you know, these numbers are from patent EP1056700B1.

Would you mind telling me the reported SR Ca^2+-ATPase Activity of each entry?
Target: SR Ca^2+-ATPase (Canis lupus familiaris, UniProt O46674)
Construct: Effect of gingerols and their derivatives on the Ca^2+-ATPase activity of dog cardiac SR; from tissue; host or cells: dog heart (cardiac sarcoplasmic reticulum)
Sequence (O46674 whole entry): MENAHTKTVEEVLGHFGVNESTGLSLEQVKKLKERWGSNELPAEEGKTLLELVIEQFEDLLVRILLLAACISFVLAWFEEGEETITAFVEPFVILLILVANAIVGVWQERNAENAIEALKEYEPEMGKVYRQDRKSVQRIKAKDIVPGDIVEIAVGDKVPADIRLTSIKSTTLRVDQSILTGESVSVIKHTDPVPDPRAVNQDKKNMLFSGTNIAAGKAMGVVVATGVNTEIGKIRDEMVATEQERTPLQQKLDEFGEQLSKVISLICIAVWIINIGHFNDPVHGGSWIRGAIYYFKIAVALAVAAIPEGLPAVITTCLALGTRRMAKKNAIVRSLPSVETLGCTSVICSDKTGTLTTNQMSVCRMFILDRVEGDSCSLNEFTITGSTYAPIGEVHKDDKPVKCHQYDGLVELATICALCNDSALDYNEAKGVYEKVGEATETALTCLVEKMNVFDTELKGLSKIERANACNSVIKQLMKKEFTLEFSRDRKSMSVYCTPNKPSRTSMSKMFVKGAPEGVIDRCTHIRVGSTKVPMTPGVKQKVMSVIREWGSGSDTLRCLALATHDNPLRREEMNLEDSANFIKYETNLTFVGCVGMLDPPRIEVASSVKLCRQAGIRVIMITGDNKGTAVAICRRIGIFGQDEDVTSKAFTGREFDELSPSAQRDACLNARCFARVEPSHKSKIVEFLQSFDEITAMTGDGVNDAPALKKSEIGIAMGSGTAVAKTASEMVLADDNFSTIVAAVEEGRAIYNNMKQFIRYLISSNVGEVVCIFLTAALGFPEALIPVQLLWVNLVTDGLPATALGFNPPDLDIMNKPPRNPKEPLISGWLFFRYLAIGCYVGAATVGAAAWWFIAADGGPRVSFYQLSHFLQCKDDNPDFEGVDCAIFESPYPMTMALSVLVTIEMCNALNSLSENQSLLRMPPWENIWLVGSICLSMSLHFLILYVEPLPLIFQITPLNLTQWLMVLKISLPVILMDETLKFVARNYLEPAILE
Test: Sarcoplasmic reticulum Ca^2+-ATPase assay
Assay type: biochemical, dog
Settings: 50 µM; 0 µM = 100; dog cardiac SR
Method: A portion at each concentration (54 µl) was aliquoted into 4 designated wells of the microplate (two of four wells were controls). Each well was mixed with ATP solution (20 mM, 6 µl), except the controls, using an 8 channel pipette. […] The plate was incubated with the lid on, for 30 min at 37°C, colour reagent (160 µl) was then added and mixed with citrate solution (34%, 30 µl). The plate was developed at room temperature for 30 min then absorbance at 655 nm was read from the microplate reader. […]
Answers are plain numbers.

CCCCCCCC(O)CCCCc1ccc(O)c(OC)c1 (stereo not shown); 126
CCCCCCCC(O)CC(=O)c1ccc(O)c(OC)c1 (stereo not shown); 180
CCCCCCCC(O)CC(=O)C=Cc1ccc(O)c(OC)c1 (stereo not shown) [[8]-dehydrogingerol, reference compound]; 65
CCCCCC(O)CC(=O)CCc1ccc(O)c(OC)c1 (stereo not shown) [[6]-gingerol, reference compound]; 160
CCCCCCCCCC(O)CC(=O)c1ccc(O)c(OC)c1 (stereo not shown); 158
CCCCCCCCCC(O)CCc1ccc(O)c(OC)c1 (stereo not shown); 101

Ask | I am curious: what SR Ca^2+-ATPase Activity value has been reported for CCCCCCCC(O)CC(=O)CCc1ccc(O)c(OC)c1 (stereo not shown) [[8]-gingerol, reference compound] ?
Reply | 139

* * *

target: SR Ca^2+-ATPase (Canis lupus familiaris, UniProt O46674); construct: Effect of gingerols and their derivatives on the Ca^2+-ATPase activity of dog cardiac SR; from tissue; host or cells: dog heart (cardiac sarcoplasmic reticulum); assay: Sarcoplasmic reticulum Ca^2+-ATPase assay; type: biochemical, dog; conditions: @ 50 µM
parameter.measured: SR Ca^2+-ATPase ↑ increase or stimulation

CCCCCC(O)CC(=O)CCc1ccc(O)c(OC)c1 (stereo not shown) [[6]-gingerol, reference compound]; ↑60% @ 50
CCCCCCCC(O)CC(=O)CCc1ccc(O)cc1 (stereo not shown) [[8]-demethoxygingerol]; ↑60% @ 50

* * *

system: rat mesenteric artery; test: Vasodilation on rat mesenteric small arteries; conditions: Rattus norvegicus; relaxation of small arteries (200-300 µm) precontracted with endothelin
parameter.measured: pEC50
Give bare numbers, as −log10 of the molar value.

CCCCCCCC(=O)CC(O)CCc1ccc(O)c(OC)c1 (centres unmarked); 7.40

Hi, could you look up pEC50 for each item in my list?
1. CCCCCCCC(O)CC(=O)CCc1ccc2c(c1)OCO2 (centres unmarked)
2. CCCCCCCCCC(=O)CCc1ccc(O)c(OC)c1 [[8]-paradol, reference compound]
3. CCCCCCCCCC(O)CCc1ccc(O)c(OC)c1 (centres unmarked)
4. CCCCCCCCCC(O)CCc1ccc(O)c(OC)c1 (single isomer, unassigned) [enantiomer-2]

Reply |
6.16
7.30
7.00
6.49

* * *

molecular target: SR Ca^2+-ATPase (Canis lupus familiaris); construct: Effect of gingerols and their derivatives on the Ca^2+-ATPase activity of dog cardiac SR; from tissue; host or cells: dog heart (cardiac sarcoplasmic reticulum); experiment: Sarcoplasmic reticulum Ca^2+-ATPase assay; type: biochemical, dog; details: 1 µM; 0 µM = 100; dog cardiac SR
Threshold-based label: SR Ca^2+-ATPase Activity under 100 gives T, SR Ca^2+-ATPase Activity not under 100 gives F.

CCCCCCCC(O)CC(=O)C=Cc1ccc(O)c(OC)c1 (centres unmarked) [[8]-dehydrogingerol, reference compound]; T
CCCCCCCCCC(O)CC(=O)c1ccc(O)c(OC)c1 (centres unmarked); F
CCCCCCCC(O)CC(=O)CCc1ccc(O)c(OC)c1 (centres unmarked) [[8]-gingerol, reference compound]; F

Ask | Problem: For the compound CCCCCC(O)CC(=O)CCc1ccc(O)c(OC)c1 (centres unmarked) [[6]-gingerol, reference compound] , is SR Ca^2+-ATPase Activity under 100?
Reply | F

Ask | Again, but for CCCCCCCC(O)CC(=O)c1ccc(O)c(OC)c1 (centres unmarked)
Reply | F
